Entry source: patent US12084420B2

# Assayed system: hKIF18A (1-374) (Homo sapiens (Human), UniProt Q8NI77)
# Sequence (Q8NI77 whole entry, looked up): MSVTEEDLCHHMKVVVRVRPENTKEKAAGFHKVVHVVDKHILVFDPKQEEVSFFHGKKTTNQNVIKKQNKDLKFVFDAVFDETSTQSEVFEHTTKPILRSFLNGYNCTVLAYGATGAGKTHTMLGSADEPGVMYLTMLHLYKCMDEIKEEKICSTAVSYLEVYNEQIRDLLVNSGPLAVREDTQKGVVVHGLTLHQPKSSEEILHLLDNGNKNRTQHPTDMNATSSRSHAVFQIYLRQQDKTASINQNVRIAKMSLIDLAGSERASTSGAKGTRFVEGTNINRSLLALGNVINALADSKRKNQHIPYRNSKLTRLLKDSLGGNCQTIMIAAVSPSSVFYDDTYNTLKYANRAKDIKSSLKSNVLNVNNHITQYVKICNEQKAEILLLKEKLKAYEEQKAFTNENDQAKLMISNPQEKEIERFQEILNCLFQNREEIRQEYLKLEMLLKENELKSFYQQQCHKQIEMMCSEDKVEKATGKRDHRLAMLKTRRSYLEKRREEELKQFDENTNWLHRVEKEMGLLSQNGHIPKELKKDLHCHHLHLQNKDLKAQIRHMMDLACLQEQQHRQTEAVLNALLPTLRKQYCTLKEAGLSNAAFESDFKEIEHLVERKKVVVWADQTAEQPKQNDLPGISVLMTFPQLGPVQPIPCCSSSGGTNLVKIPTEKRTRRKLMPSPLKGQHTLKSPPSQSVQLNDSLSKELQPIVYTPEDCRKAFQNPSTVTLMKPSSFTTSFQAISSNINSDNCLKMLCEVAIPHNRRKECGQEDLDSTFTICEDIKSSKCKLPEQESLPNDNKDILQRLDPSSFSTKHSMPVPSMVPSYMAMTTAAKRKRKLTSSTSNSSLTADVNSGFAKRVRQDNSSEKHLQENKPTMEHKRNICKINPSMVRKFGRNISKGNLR
# Sequence (Q2XVP4 whole entry partner, looked up): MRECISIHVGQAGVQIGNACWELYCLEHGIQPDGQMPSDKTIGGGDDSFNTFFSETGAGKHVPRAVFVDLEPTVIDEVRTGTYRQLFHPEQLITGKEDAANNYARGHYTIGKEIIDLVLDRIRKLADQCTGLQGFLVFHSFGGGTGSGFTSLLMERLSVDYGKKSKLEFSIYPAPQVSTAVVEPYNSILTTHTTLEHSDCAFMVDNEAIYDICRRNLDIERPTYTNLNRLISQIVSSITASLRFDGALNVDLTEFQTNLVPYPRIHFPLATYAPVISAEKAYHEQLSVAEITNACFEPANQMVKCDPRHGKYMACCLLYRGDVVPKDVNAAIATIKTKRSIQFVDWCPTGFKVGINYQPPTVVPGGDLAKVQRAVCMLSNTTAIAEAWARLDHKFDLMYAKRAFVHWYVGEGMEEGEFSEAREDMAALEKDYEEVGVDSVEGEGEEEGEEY
# Sequence (P02554 whole entry partner, looked up): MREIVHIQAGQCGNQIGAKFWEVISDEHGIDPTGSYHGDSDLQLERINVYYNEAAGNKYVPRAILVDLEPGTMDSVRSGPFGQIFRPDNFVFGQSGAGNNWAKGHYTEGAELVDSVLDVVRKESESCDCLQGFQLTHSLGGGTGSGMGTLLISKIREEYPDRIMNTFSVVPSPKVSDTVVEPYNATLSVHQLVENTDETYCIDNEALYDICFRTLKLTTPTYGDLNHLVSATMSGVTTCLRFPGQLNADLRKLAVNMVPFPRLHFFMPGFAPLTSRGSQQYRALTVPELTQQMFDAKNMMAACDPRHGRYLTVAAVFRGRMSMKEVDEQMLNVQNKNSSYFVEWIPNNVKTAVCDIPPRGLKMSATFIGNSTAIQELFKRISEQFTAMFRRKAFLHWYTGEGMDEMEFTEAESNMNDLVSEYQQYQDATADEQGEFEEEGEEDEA
# Experimental protocol: Inhibition of KIF18A microtubule-dependent ATPase activity (ADP-Glo)
# Particulars: KIF18A microtubule-dependent ATPase activity, biochemical assay
Measurement kind: IC50 (nM)
Write the number in nM without appending the unit.

Recorded results for 2 compounds are shown here.
[
  {
    "Compound": "CC(c1cccc(C(=O)N2CC3(CCC4(CC4)CC3)c3cc(NS(C)(=O)=O)ccc32)c1)N1CCC(F)(F)CC1 (stereo not drawn) [Compound 341]",
    "Numeric result": 25
  },
  {
    "Compound": "CS(=O)(=O)Nc1ccc2c(c1)C1(CCC3(CC3)CC1)CN2C(=O)c1cccc(C(O)C2CCCC2)c1 (single isomer, unassigned) [Compound 165a]",
    "Numeric result": 8.8
  }
]

From here, focus on the item given below.
Per the reported hKIF18A (1-374) (Homo sapiens (Human), UniProt Q8NI77) data, C[C@@H](c1cccc(C(=O)N2CC3(CCC4(CC4)CC3)c3cc(NS(C)(=O)=O)ccc32)c1)N1CCC(F)(F)CC1 (single isomer, unassigned) [Compound 341a] has IC50 of 30
